- Test Target: arginase II (ARG II) (Homo sapiens, UniProt P78540)
- Sequence (P78540 23-354): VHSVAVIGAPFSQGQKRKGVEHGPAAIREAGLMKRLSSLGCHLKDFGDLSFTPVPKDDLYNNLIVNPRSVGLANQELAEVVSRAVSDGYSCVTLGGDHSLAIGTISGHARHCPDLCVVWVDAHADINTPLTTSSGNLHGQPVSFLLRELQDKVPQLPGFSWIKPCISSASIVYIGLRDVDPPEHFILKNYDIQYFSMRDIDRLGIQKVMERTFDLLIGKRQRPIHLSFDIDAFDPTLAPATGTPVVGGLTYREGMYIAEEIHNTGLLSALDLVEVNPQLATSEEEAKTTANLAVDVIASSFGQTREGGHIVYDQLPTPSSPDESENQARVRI
- Test Details: Inhibition of arginase II, spectrophotometric urea assay at 530 nm
- Format: biochemical
- Test Parameters: Formula I compounds, Table 2; read-out: Potency (ARG II)
Structures can show the parent of a compound that is named as a salt.
Measured Metric: IC50

Ask: Any idea what its IC50 is? The molecule is NC(CCCCB(O)O)(CCNCCCc1cc(C(F)(F)F)ccc1Cl)C(=O)O (stereo not shown) [compound 64, dihydrochloride]
Reply: 0.0001 to 0.25 µM

Ask: Any idea what its IC50 is? The molecule is CCN(CCC(N)(CCCCB(O)O)C(=O)O)Cc1ccccc1 (racemic) [compound 19, dihydrochloride]
Reply: 1 to 2 µM

Ask: Any idea what its IC50 is? The molecule is NC(CCCCB(O)O)(CCN1CCC[C@H]1CN1CCCC1)C(=O)O (stereo partly shown) [compound 40, trihydrochloride]
Reply: 2 to 5 µM

Ask: Any idea what its IC50 is? The molecule is NC(CCCCB(O)O)(CCN1CCc2ccccc2C1)C(=O)O (stereo not shown) [compound 36, dihydrochloride]
Reply: 1 to 2 µM

Ask: Any idea what its IC50 is? The molecule is COc1cccc(CCCNCCC(N)(CCCCB(O)O)C(=O)O)c1 (stereo not shown) [compound 65, dihydrochloride]
Reply: 0.0001 to 0.25 µM

Ask: Any idea what its IC50 is? The molecule is COc1ccc(CNCCC(N)(CCCCB(O)O)C(=O)O)cc1 (stereo not shown) [compound 69, dihydrochloride]
Reply: 0.0001 to 0.25 µM

Ask: Any idea what its IC50 is? The molecule is NC(CCCCB(O)O)(CCN1CC=C(c2ccccc2)CC1)C(=O)O (stereo not shown) [compound 28, dihydrochloride]
Reply: 1 to 2 µM

Ask: Any idea what its IC50 is? The molecule is NC(CCCCB(O)O)(CNC(c1ccccc1)C(O)c1ccccc1)C(=O)O (stereo in doubt) [compound 89, dihydrochloride]
Reply: > 5 µM

Ask: Any idea what its IC50 is? The molecule is NC(CCCCB(O)O)(CCN1CCc2ccsc2C1)C(=O)O (stereo not shown) [compound 62, dihydrochloride]
Reply: 1 to 2 µM

Ask: Any idea what its IC50 is? The molecule is N[C@](CCCCB(O)O)(CCN1CCC(O)CC1)C(=O)O [compound 4, dihydrochloride]
Reply: 0.251 to 1 µM

Ask: Any idea what its IC50 is? The molecule is NC(CCCCB(O)O)(CCNC1CC1)C(=O)O (stereo not shown) [compound 68, dihydrochloride]
Reply: 0.251 to 1 µM

Ask: Any idea what its IC50 is? The molecule is NC(CCCCB(O)O)(CCN1CCC(F)CC1)C(=O)O (stereo not shown) [compound 47, dihydrochloride]
Reply: 2 to 5 µM

Ask: Any idea what its IC50 is? The molecule is CNC(CCCCB(O)O)C(=O)O (stereo not shown) [compound 146, hydrochloride]
Reply: 2 to 5 µM

Ask: Any idea what its IC50 is? The molecule is COc1ccc(C2=CCN(CCC(N)(CCCCB(O)O)C(=O)O)CC2)cc1 (stereo not shown) [compound 31, dihydrochloride]
Reply: 0.251 to 1 µM

Ask: Any idea what its IC50 is? The molecule is NC(CCCCB(O)O)(CC[C@@H]1CCCN1)C(=O)O (stereo partly shown) [compound 143, dihydrochloride]
Reply: 0.0001 to 0.25 µM

Ask: Any idea what its IC50 is? The molecule is NC(CCCCB(O)O)(CCN1CCCC1)C(=O)O (stereo not shown)
Reply: 1 to 2 µM

Each recorded value in this set is attributed to patent US9994594B2.
